Each record here notes measured Human WBSC IC50 (vs rhGROα).
Molecular target: T1, Human CXCR2 (human, UniProt P25025 1-360)
T1 sequence: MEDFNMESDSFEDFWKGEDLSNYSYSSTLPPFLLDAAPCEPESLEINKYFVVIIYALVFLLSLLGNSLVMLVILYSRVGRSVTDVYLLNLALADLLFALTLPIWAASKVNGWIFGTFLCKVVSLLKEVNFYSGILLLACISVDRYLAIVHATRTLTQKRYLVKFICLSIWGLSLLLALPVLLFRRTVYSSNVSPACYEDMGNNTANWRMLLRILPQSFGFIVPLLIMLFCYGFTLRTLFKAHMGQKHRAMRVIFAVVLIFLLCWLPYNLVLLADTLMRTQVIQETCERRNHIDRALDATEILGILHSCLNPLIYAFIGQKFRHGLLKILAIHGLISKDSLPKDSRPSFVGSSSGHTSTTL
Test: cell-based or functional assay
Your answer should be a plain number; it is taken to be in pM.

{"columns": ["binder", "Human WBSC IC50 (vs rhGROα) / pM"],
 "data": [
  ["CXCR20035 (other, not shown: small tags and cut ends) EVQLVESGGGLVQAGGSLTLSCAVSGSTFRINTMGWYRRAPGKQRELVAARDRGGYINYVDSVKGRFTVSRDNAKPTMYLQMNSLKPEDTAVYYCHAGTQDRTGRNFDRWGQGTQVTVSSGGGGSGGGGSGGGGSGGGGSGGGGSGGGGSGGGGSEVQLVESGGGLVQPGGSLRLSCVASGRIFSSNAMGWFRQAPGKEREFVAAITWRSGGSAYYADSAKGRFTISRDNAKNTVYLQMNSLKPEDTAVYYCAAGGSSWLSFPPDYWGQGTQVTVSS", 240],
  ["CXCR20034 (bispecific antibody, not shown: small tags and cut ends) EVQLVESGGGLVQAGGSLRLSCAASGRTFSDYAMGWFRQAPGKEREFVAAITWNGGRVFYTASVKGRFTISRDNAKNTMYLQMNSLKPEDTAVYYCAADKDRRTDYLGHPVAYWGQGTQVTVSSGGGGSGGGGSGGGGSGGGGSGGGGSGGGGSGGGGSEVQLVESGGELVQPGGSLRLSCAASGSILTINAMGWYRQAPGKQRELVVRRTRGGSTTYQDSVKGRFTISADIAKKTMYLQMNSLKPEDTAVYYCMLDDRGGVYWGQGTQVTVSS", 290],
  ["CXCR20026 (bispecific antibody, not shown: small tags and cut ends) EVQLVESGGGLVQPGGSLRLSCVASGRIFSSNAMGWFRQAPGKEREFVAAITWRSGGSAYYADSAKGRFTISRDNAKNTVYLQMNSLKPEDTAVYYCAAGGSSWLSFPPDYWGQGTQVTVSSGGGGSGGGGSGGGGSGGGGSGGGGSGGGGSGGGGSEVQLVESGGGLVQAGESLRLSCAASGSTFDFKVMGWYRQPPGKQREGVAAIRLSGNMHYAESVKGRFTISKANAKNTVYLQMNSLRPEDTAVYYCKVNIRGQDYWGQGTQVTVSS", 165]
]}

Need Human WBSC IC50 (vs rhGROα), item CXCR20020 (bispecific antibody, not shown: small tags and cut ends) EVQLVESGGGLVQAGESLRLSCAASGSTFDFKVMGWYRQPPGKQREGVAAIRLSGNMHYAESVKGRFTISKANAKNTVYLQMNSLRPEDTAVYYCKVNIRGQDYWGQGTQVTVSSGGGGSGGGGSGGGGSGGGGSGGGGSGGGGSGGGGSEVQLVESGGGLVQAGGSLRLSCAASGRTFSDYAMGWFRQAPGKEREFVAAITWNGGRVFYTASVKGRFTISRDNAKNTMYLQMNSLKPEDTAVYYCAADKDRRTDYLGHPVAYWGQGTQVTVSS
170

Value lookup for Human WBSC IC50 (vs rhGROα); key = CXCR20014 (bispecific antibody, not shown: small tags and cut ends) EVQLVESGGGLVQPGGSLRLSCVASGSIVRINTMGWYRQTPGKQRELVADITSGGNINYIDAVKGRFTISRDNTKNTVYLQMNSLKPEDTAVYYCNAEIVVLVGVWTQRARTGNYWGQGTQVTVSSGGGGSGGGGSGGGGSGGGGSGGGGSGGGGSGGGGSEVQLVESGGELVQPGGSLRLSCAASGSILTINAMGWYRQAPGKQRELVVRRTRGGSTTYQDSVKGRFTISADIAKKTMYLQMNSLKPEDTAVYYCMLDDRGGVYWGQGTQVTVSS
445

Look up Human WBSC IC50 (vs rhGROα): CXCR20028 (other, not shown: small tags and cut ends) EVQLVESGGGLVQPGGSLRLSCVASGSIVRINTMGWYRQTPGKQRELVADITSGGNINYIDAVKGRFTISRDNTKNTVYLQMNSLKPEDTAVYYCNAEIVVLVGVWTQRARTGNYWGQGTQVTVSSGGGGSGGGGSGGGGSGGGGSGGGGSGGGGSGGGGSEVQLVESGGGLVQAGGSLTLSCAVSGSTFRINTMGWYRRAPGKQRELVAARDRGGYINYVDSVKGRFTVSRDNAKPTMYLQMNSLKPEDTAVYYCHAGTQDRTGRNFDRWGQGTQVTVSS
430
